# Tested on: A549
# methodSummary: Antiproliferative activity against human A549 cells by SRB assay
# Format: functional, cell-based
pIC50: −log10 of the molar value.
propertyName: pIC50

Example cases with answers are listed next.
[
  {
    "compound": "COc1ccc(NC(=O)c2cc(-c3ccccc3)nc3ccc(F)cc23)cc1",
    "propertyName": "pIC50",
    "experimentalValue": "< 4.30"
  },
  {
    "compound": "COC(=O)C1=C(NC(=O)c2cc(-c3ccccc3)nc3ccccc23)NC=CN1",
    "propertyName": "pIC50",
    "experimentalValue": "< 4.30"
  },
  {
    "compound": "COc1ccc(NC(=O)c2cc(-c3ccc(C(F)(F)F)cc3)nc3ccccc23)c(C)c1",
    "propertyName": "pIC50",
    "experimentalValue": "< 4.30"
  },
  {
    "compound": "COc1ccc(NC(=O)c2c3c(nc4ccc(Cl)cc24)-c2ccccc2CC3)c(C)c1",
    "propertyName": "pIC50",
    "experimentalValue": "< 4.30"
  },
  {
    "compound": "COc1ccc(NC(=O)c2cc(-c3ccccc3)nc3ccc(Cl)cc23)cc1",
    "propertyName": "pIC50",
    "experimentalValue": "< 4.30"
  },
  {
    "compound": "COc1ccc(NC(=O)c2cc(-c3ccccc3)nc3ccc(Cl)cc23)c(C)c1",
    "propertyName": "pIC50",
    "experimentalValue": "< 4.30"
  }
]

Notebook: `COc1ccc(NC(=O)c2cc(-c3ccc(C)cc3)nc3ccccc23)cc1` , pIC50 read as 4.73

Notebook: `COc1cc(NC(=O)c2cc(-c3ccccc3)nc3ccccc23)cc(OC)c1OC` , pIC50 read as 4.75

Ref: ChEMBL document CHEMBL4043270
